biological target: aggregated (oligomeric) P301S 2N4R tau, pHrodo-labelled (human, UniProt P10636 1-758, pHrodo Red maleimide label); assay: cell-based or functional assay; note: test concentration or dose not given here
Sequence (P10636 other isoform, or with tags, fused parts or gaps P301S P301S): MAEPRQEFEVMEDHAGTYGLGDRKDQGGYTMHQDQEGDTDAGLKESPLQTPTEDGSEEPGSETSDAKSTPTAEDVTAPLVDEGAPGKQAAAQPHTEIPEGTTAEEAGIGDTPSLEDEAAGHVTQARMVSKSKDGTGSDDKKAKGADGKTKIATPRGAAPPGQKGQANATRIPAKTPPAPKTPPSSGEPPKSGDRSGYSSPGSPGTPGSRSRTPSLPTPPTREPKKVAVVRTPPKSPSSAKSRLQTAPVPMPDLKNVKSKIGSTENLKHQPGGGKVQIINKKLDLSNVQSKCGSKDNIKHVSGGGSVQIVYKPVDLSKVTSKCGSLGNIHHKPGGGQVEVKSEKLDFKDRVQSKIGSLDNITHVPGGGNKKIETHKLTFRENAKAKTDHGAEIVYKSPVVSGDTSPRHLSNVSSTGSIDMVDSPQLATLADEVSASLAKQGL
MEASUREMENT KIND: inhibition of aggregated tau uptake into human iPSC-derived astrocytes

BINDER	VAL
#44_VH4VK4 humanised hIgG1 (antibody, V domains shown, also called VH4Vκ4; pVH/pVL) VH: QVQLQESGPGLVKPSETLSLTCTVSGIDLSSYAMAWVRQAPGKGLEWIGCIDRRGGTFYASWVKGRFTISKDTSKTTVDLQMTSLTAEDTATYFCARDSGAFDPWGQGTLVTVSS VL: DIQMTQSPSSLSASVGDRVTITCQASQSVYDNYLAWYQQKPGQPPKLLIHAASNLASGVPSRFSGSGSGTEFTLTISSLQPDDFATYYCLGEFSCTTTDCNVFGGGTKVEIK	61.9%
#44 VH3VK4 humanised hIgG1 (antibody, V domains shown, also called VH3Vκ4; Clone VH3VK4 (B)) VH: QVQLQESGPGLVKPSETLSLTCTVSGIDLSSYAMAWVRQAPGKGLEWIGCIDRRGGTFYASWVKGRFTISKTSTTVDLQMTSLTAEDTATYFCARDSGAFDPWGQGTLVTVSS VL: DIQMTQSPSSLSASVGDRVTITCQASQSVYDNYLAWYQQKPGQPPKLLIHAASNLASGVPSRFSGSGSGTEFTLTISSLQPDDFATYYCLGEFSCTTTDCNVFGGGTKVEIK	45%
